Data provenance is patent US20200181255A1.

Catalogue of IC50 (pM), NK cell assay (IFNγ) values
# target or test system: T1, recombinant human IL-23 (human, UniProt Q9NPF7 20-189; P29460 23-328)
# T1 sequence 1: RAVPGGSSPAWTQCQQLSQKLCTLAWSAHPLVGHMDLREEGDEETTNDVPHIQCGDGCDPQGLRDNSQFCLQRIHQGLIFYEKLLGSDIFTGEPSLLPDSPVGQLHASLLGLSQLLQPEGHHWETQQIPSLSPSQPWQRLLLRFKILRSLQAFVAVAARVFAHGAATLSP
# T1 sequence 2: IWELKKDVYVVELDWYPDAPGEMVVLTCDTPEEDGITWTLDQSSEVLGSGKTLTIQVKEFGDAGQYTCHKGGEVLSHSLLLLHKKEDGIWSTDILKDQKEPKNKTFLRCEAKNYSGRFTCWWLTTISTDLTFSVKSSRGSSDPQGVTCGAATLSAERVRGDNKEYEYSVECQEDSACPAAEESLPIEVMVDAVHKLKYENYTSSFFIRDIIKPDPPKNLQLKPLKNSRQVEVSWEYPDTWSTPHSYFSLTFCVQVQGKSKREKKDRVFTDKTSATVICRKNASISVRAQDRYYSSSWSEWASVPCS
# experimental protocol: cell-based or functional assay
attribute measured: IC50 (pM), NK cell assay (IFNγ)

| binder | attribute measured | numeric result |
| --- | --- | --- |
| Antibody L (antibody, V domains shown, also called VH4/VL4) VH: QVQLVESGGGVVQPGRSLRLSCAASGFTFSSYAMHWVRQAPGKGLEWLSVISHDGSIKYYADSVKGRFTISRDNSKNTLYLQMNSLRAEDTAVYYCARERTTLSGSYFDYWGQGTLVTVSS VL: QAVLTQPSSLSASPGASASLTCTLRSGINVGTYRIYWYQQKPGSPPQYLLRYKSDSDKQQGSGVPSRFSGSKDASANAGILLISGLQSEDEADYYCMIWHSSASVFGGGTKLTVL | IC50 (pM), NK cell assay (IFNγ) | 3 |
| Antibody J (antibody, V domains shown) VH: QVQLVESGGGVVQPGRSLRLSCAASGFTFSSYGMHWVRQAPGKGLEWVAVISFDGSLKYYADSVKGRFTISRDNSKNTLYLQMNSLRAEDTAVYYCARERTTLSGSYFDYWGQGTLVTVSS VL: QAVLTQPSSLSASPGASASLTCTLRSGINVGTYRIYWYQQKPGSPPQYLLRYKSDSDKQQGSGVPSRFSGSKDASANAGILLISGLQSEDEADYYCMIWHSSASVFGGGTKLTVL | IC50 (pM), NK cell assay (IFNγ) | 4 |
| Antibody H (antibody, V domains shown) VH: QVQLQESGPGLVKPSQTLSLTCTVSGGSISSGGYYWTWIRQHPGKGLEWIGYIYYSGNTYYNPSLKSRITISVDTSKNQFSLSLSSVTAADTAVYYCARNRGYYYGMDVWGQGTTVTVSS VL: DIQMTQSPSSVSASVGDRVTITCRASQGFSGWLAWYQQKPGKAPKLLIYAASSLQSGVPSRFSGSGSGTDFTLTISSLQPEDFATYYCQQANSFPFTFGPGTKVDIK | IC50 (pM), NK cell assay (IFNγ) | 29 |
| Antibody G (antibody, V domains shown, also called VH12/VL12) VH: QVQLQESGPRLVKPSETLSLTCTVSGDSISSYFWSWIRQPPGKGLEWLGYIYYSGSTNYNPSLKSRVTISIDTSKNQFSLKLSSVTAADTAVYYCTRDRGSYYGSDYWGQGTLVTVSS VL: DIQMTQSPSSVSASVGDRVTITCRAGQVISSWLAWYQQKPGKAPKLLIYAASSLQSGVPSRFSGSGSGTDFTLTISSLQPDDFATYYCQQATSFPLTFGGGTKVEIK | IC50 (pM), NK cell assay (IFNγ) | 45 |
